# tested_on: UniProtKB Q9Y5P4
# Sequence (Q9Y5P4 20-122): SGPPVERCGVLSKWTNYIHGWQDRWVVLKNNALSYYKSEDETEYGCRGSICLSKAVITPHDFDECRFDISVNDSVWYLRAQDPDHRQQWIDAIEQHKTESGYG
pKd: −log10 of the molar value.
observable: pKd

* CCCCCC(=O)OC[C@H](COP(=O)(O)O[C@H]1[C@H](O)[C@@H](O)[C@H](OP(=O)(O)O)[C@@H](O)[C@H]1O)OC(=O)CCCCC [diC6-PtdIns(4)P] | 3.33
